- test_system: T1, human serum albumin (human, UniProt P02768 25-609)
- T1 construct: Bought protein; also called HSA
- test: SPR, pH 7.4, immobilized HSA density ~3000 RU
reported_endpoint: koff (s⁻¹)
Write the number in s⁻¹ without appending the unit.

(Q) Query koff for IRR00164 (VHH, also called CNB-9GS-CNB-9GS-CNB-9GS-ALB23002-A; CNB-CNB-CNB-Alb223) VHH: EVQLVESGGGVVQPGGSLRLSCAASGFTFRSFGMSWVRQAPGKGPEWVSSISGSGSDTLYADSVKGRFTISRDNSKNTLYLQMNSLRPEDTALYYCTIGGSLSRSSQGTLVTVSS
(A) 0.0016
